This collection of values is drawn from patent US11319305B2.

# System tested: human ETA receptor (Homo sapiens)
# Construct: endogenously expressed human ETA receptors in SK-N-MC cells; host or cells: SK-N-MC cells
# Sequence (P25101 21-427): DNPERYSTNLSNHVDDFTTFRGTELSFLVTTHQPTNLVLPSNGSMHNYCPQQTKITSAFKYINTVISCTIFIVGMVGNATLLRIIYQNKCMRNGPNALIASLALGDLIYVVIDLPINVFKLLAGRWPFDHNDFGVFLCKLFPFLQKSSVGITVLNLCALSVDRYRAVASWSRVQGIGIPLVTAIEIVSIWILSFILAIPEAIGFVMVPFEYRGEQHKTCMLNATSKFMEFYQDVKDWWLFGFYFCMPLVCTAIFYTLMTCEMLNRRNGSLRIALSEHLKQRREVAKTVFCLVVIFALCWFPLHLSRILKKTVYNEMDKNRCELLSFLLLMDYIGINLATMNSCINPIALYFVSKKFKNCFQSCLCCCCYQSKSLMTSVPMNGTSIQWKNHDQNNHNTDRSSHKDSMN
# Experimental details: In vitro antagonistic effect against human ETA receptor, Ca2+ signal in SK-N-MC cells
# Format: cell-based
# Setup conditions: ratio of ETB IC50 to ETA IC50
Readout name: ETA/ETB selectivity
Keep it simple and answer with nothing but the number.

Answered examples (8):
{"columns": ["Compound", "Readout name", "Observed"],
 "data": [
  ["O=S(=O)(NCC1CCCO1)Nc1ncnc(OCCOc2ncc(Br)cn2)c1-c1ccc2c(c1)OCO2 (single isomer, unassigned) [WX023]", "ETA/ETB selectivity", 46800],
  ["COCCNS(=O)(=O)Nc1ncnc(OCCOc2ncc(Br)cn2)c1-c1ccc2c(c1)CCO2", "ETA/ETB selectivity", 55500],
  ["CCCNS(=O)(=O)Nc1ncnc(OCCOc2ncc(Br)cn2)c1-c1ccc2c(c1)OCC2", "ETA/ETB selectivity", 24600],
  ["O=S(=O)(NCC1CCC1)Nc1ncnc(OCCOc2ncc(Br)cn2)c1-c1ccc2c(c1)OCO2", "ETA/ETB selectivity", 48500],
  ["O=S(=O)(NCC1CC1)Nc1ncnc(OCCOc2ncc(Br)cn2)c1-c1ccc2ccnn2c1", "ETA/ETB selectivity", 24200],
  ["COCCNS(=O)(=O)Nc1ncnc(OCCOc2ncc(Br)cn2)c1-c1ccc2c(c1)OCC2", "ETA/ETB selectivity", 25300],
  ["CCCCNS(=O)(=O)Nc1ncnc(OCCOc2ncc(Br)cn2)c1-c1ccc2ccnn2c1", "ETA/ETB selectivity", 66300],
  ["CCCOCCNS(=O)(=O)Nc1ncnc(OCCOc2ncc(Br)cn2)c1-c1ccc2c(c1)OCO2", "ETA/ETB selectivity", 27800]
]}

Give recorded ETA/ETB selectivity. O=S(=O)(NCC1CCCO1)Nc1ncnc(OCCOc2ncc(Br)cn2)c1-c1ccc2c(c1)OCO2 (centres unmarked) [WX021]
135200

Give recorded ETA/ETB selectivity. CS(=O)(=O)CCNS(=O)(=O)Nc1ncnc(OCCOc2ncc(Br)cn2)c1-c1ccc2c(c1)OCO2
36100

Give recorded ETA/ETB selectivity. CCCCNS(=O)(=O)Nc1ncnc(OCCOc2ncc(Br)cn2)c1-c1ccc2scnc2c1
14000

Give recorded ETA/ETB selectivity. CCCCNS(=O)(=O)Nc1ncnc(OCCOc2ncc(Br)cn2)c1-c1ccc2c(c1)OCO2
94100

* * *

Measured ETA/ETB selectivity accompanies every entry in the list below.
# System tested: human ETA receptor (Homo sapiens)
# Construct: endogenously expressed human ETA receptors in SK-N-MC cells; host or cells: SK-N-MC cells
# Experimental details: In vitro antagonistic effect against human ETA receptor, Ca2+ signal in SK-N-MC cells
# Assay type: cell-based
# Setup conditions: ratio of ETB IC50 to ETA IC50
Keep it simple and answer with nothing but the number.

Answered examples (3):
{"columns": ["Compound", "Observed"],
 "data": [
  ["COCCNS(=O)(=O)Nc1ncnc(OCCOc2ncc(Br)cn2)c1-c1ccc2c(c1)OCO2", 47100],
  ["CCCNS(=O)(=O)Nc1ncnc(OCCOc2ncc(Br)cn2)c1-c1ccc2c(c1)OCO2", 651100],
  ["O=S(=O)(NCC1CCCO1)Nc1ncnc(OCCOc2ncc(Br)cn2)c1-c1ccc2c(c1)OCO2 (single isomer, unassigned) [WX024]", 26800]
]}

Give recorded ETA/ETB selectivity. CCCNS(=O)(=O)Nc1ncnc(OCCOc2ncc(Br)cn2)c1-c1ccc2ccnn2c1
19600

Give recorded ETA/ETB selectivity. NS(=O)(=O)Nc1ncnc(OCCOc2ncc(Br)cn2)c1-c1ccc2c(c1)OCO2
30300

Give recorded ETA/ETB selectivity. O=S(=O)(Nc1ncnc(OCCOc2ncc(Br)cn2)c1-c1ccc2c(c1)OCO2)NC1CCC1
22000
